As shown below, each of these compounds has a reported IC50 value.
# Test system: MIA PaCa-2 (KRAS G12C) cells
# procedureSummary: Cellular pERK HTRF assay
# Type: cell-based, human
# conditions: Homo sapiens, MIA PaCa-2; KRAS_G12C pERK assay; cells incubated with compounds 4 hours; read-out: G12C_pERK IC50
# Method: Example C: Cellular pERK HTRF Assay […] 4 uL of 4× lysis buffer with blocking reagent (1:25) (Cisbio) are added to each well and plates are rotated gently (300 rpm) for 30 minutes at room temperature. […] Plates are read on the Pherastar plate reader at 665 nm and 620 nm wavelengths. […]

Use the examples below as a reference point.
> print(dat)
                                   compound  experimentalresult
1  C=Cc1ncc2n1CCN(c1nc(=O)n(CC3CC3)c3nc(-c4c(O)cccc4F)c(F)cc13)C2          5 to 10 µM
2  C=Cc1ncc2n1CCN(c1nc(OCC3CCCN3C)nc3c(F)c(-c4cc(O)cc5ccccc45)c(Cl)cc13)C2 (racemic)           1 to 5 µM
3  C=Cc1ncc2n1CCN(c1nc(OCC3CCCN3C)nc3c(F)c(-c4c(O)cccc4F)c(Cl)cc13)C2 (racemic)          5 to 10 µM
4  C=Cc1ncc2n1CCN(c1nc(OC3CCN(C)CC3)nc3c(F)c(-c4cc(O)cc5ccccc45)c(Cl)cc13)C2          5 to 10 µM

*Q* So what IC50 did "C=Cc1ncc2n1CCN(c1nc(=O)n(C(C)C)c3nc(-c4c(O)cccc4F)c(F)cc13)C2" get with MIA PaCa-2 (KRAS G12C) cells?
*A* 5 to 10 µM

*Q* Give IC50 (MIA PaCa-2 (KRAS G12C) cells) of the following compound: "C=Cc1ncc2n1CCN(c1nc(OCCN3CCOCC3)nc3c(F)c(-c4cc(O)cc5ccccc45)c(Cl)cc13)C2"
*A* 5 to 10 µM

* * *

The entries below are paired with their reported IC50.
# testedSystem: KRAS G12C (Homo sapiens, UniProt P01116, G12C)
# Sequence (P01116 1-188 isoform P01116-2 G12C): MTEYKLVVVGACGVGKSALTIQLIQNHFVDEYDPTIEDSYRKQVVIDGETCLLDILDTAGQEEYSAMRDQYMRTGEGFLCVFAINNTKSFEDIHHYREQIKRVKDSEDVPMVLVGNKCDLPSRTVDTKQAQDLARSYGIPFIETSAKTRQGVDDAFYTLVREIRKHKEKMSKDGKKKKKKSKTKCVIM
# procedureSummary: GDP-GTP exchange assay (fluorescence based guanine nucleotide exchange, bodipy-GDP for GppNHp, SOS1)
# conditions: bodipy-loaded KRAS G12C 2.5 nM, GppNHp 500 uM, SOS1 150 nM; 2 hours pre-incubation with inhibitor; read-out: G12C_exchange IC50

> print(dat)
                                   compound                              testedsystem  experimentalresult
1  C=Cc1ncc2n1CCN(c1nc(=O)n(-c3c(C)ccnc3C(C)C)c3nc(-c4c(O)cccc4F)c(F)cc13)C2 (single isomer, unassigned) [Example 1]  KRAS G12C (Homo sapiens, UniProt P01116, G12C)      100 to 1000 nM

Lab note: next compound to report on.
*Q* So what's the measured IC50 for this one? "Cc1ccnc(C(C)C)c1-n1c(=O)nc(N2CCn3c(cnc3/C=C/c3ccc(F)cc3F)C2)c2cc(F)c(-c3c(O)cccc3F)nc21"
*A* 1000 to 5000 nM

* * *

In this section we review reported IC50 values for a set of molecules.
# System: MIA PaCa-2 (KRAS G12C) cells
# procedureSummary: Cellular pERK HTRF assay
# Assay type: cell-based, human
# conditions: Homo sapiens, MIA PaCa-2; KRAS_G12C pERK assay; cells incubated with compounds 4 hours; read-out: G12C_pERK IC50

> print(dat)
                                   molecule  measurementname  experimentalresult
1  C=Cc1ncc2n1CCN(c1nc(OCC3CCCN3C)nc3c(F)c(-c4c(C)ccc5[nH]ncc45)c(Cl)cc13)C2 (racemic)             IC50          5 to 10 µM

*Q* Recorded IC50 for C=Cc1ncc2n1CCN(c1nc(=O)n(-c3c(C)ccnc3C(C)C)c3nc(-c4c(O)cccc4F)c(F)cc13)C2 (single isomer, unassigned) with MIA PaCa-2 (KRAS G12C) cells, please?
*A* 5 to 10 µM

*Q* Given the entry "C=Cc1ncc2n1CCN(c1nc(N3CC(N(C)C)C3)nc3c(F)c(-c4cc(O)cc5ccccc45)c(Cl)cc13)C2" , what IC50 was observed with MIA PaCa-2 (KRAS G12C) cells?
*A* 1 to 5 µM

*Q* Form: Entry = "C=Cc1ncc2n1CCN(c1nc(OCCN(C)C)nc3c(F)c(-c4cc(O)cc5ccccc45)c(Cl)cc13)C2" | System = MIA PaCa-2 (KRAS G12C) cells | IC50 = ____
*A* 1 to 5 µM

*Q* Request body: readout IC50, system MIA PaCa-2 (KRAS G12C) cells, query C=Cc1ncc2n1CCN(c1nc(OC3CCCN(C)C3)nc3c(F)c(-c4cc(O)cc5ccccc45)c(Cl)cc13)C2 (racemic) . Return the value.
*A* 5 to 10 µM

*Q* Which IC50 is reported with MIA PaCa-2 (KRAS G12C) cells for this entry: "C=Cc1ncc2n1CCN(c1nc(OC[C@@H]3CCCN3C)nc3c(F)c(-c4cc(O)cc5ccccc45)c(Cl)cc13)C2" ?
*A* 1 to 5 µM

* * *

# testedSystem: KRAS G12C (Homo sapiens, UniProt P01116, G12C)
# procedureSummary: GDP-GTP exchange assay (fluorescence based guanine nucleotide exchange, bodipy-GDP for GppNHp, SOS1)
# conditions: bodipy-loaded KRAS G12C 2.5 nM, GppNHp 500 uM, SOS1 150 nM; 2 hours pre-incubation with inhibitor; read-out: G12C_exchange IC50
Attribute: IC50

Some solved entries appear below for comparison.
> print(dat)
                                   compound                              testedsystem  experimentalresult
1  C=Cc1nc(CN2CC(C(F)(F)F)C2)c2n1CCN(c1nc(=O)n(-c3c(C)ccnc3C(C)C)c3nc(-c4c(O)cccc4F)c(F)cc13)C2  KRAS G12C (Homo sapiens, UniProt P01116, G12C)           1 to 5 µM
2  C=Cc1nc(CN(C)CC#N)c2n1CCN(c1nc(=O)n(-c3c(C)ccnc3C(C)C)c3nc(-c4c(O)cccc4F)c(F)cc13)C2  KRAS G12C (Homo sapiens, UniProt P01116, G12C)           1 to 5 µM
3  C=Cc1ncc2n1CCN(c1nc(OC[C@@H]3CCCN3C)nc3c(F)c(-c4cc(O)cc5ccccc45)c(Cl)cc13)C2  KRAS G12C (Homo sapiens, UniProt P01116, G12C)         0.1 to 1 µM
4  C=Cc1ncc2n1CCN(c1nc(OC3CCN(C)CC3)nc3c(F)c(-c4cc(O)cc5ccccc45)c(Cl)cc13)C2  KRAS G12C (Homo sapiens, UniProt P01116, G12C)         0.1 to 1 µM

*Q* Write down the reported IC50 of "C=Cc1ncc2n1CCN(c1nc(N3CC(N(C)C)C3)nc3c(F)c(-c4cc(O)cc5ccccc45)c(Cl)cc13)C2" , test system: KRAS G12C (Homo sapiens, UniProt P01116, G12C).
*A* 0.1 to 1 µM

*Q* For KRAS G12C (Homo sapiens, UniProt P01116, G12C), provide IC50 of C=Cc1ncc2n1CCN(c1nc(OCC3CCCN3C)nc3c(F)c(-c4c(O)cccc4F)c(Cl)cc13)C2 (racemic) please.
*A* 0.1 to 1 µM

* * *

# testedSystem: KRAS G12C (Homo sapiens, UniProt P01116, G12C)
# procedureSummary: GDP-GTP exchange assay (fluorescence based guanine nucleotide exchange, bodipy-GDP for GppNHp, SOS1)
# conditions: bodipy-loaded KRAS G12C 2.5 nM, GppNHp 500 uM, SOS1 150 nM; 2 hours pre-incubation with inhibitor; read-out: G12C_exchange IC50
measurementName: IC50

Below are worked cases with known answers.
> print(dat)
                                   molecule                              testedsystem  measurementname  experimentalresult
1  C=Cc1ncc2n1CCN(c1nc(OCC3CCCN3C)nc3c(F)c(-c4cc(O)cc5ccccc45)c(Cl)cc13)C2 (racemic)  KRAS G12C (Homo sapiens, UniProt P01116, G12C)             IC50            ≤ 100 nM
2  C=Cc1ncc2n1CCN(c1nc(=O)n(CC3CC3)c3nc(-c4c(O)cccc4F)c(F)cc13)C2  KRAS G12C (Homo sapiens, UniProt P01116, G12C)             IC50      100 to 1000 nM
3  Cc1ccnc(C(C)C)c1-n1c(=O)nc(N2CCn3c(cnc3/C=C/c3cc(F)cc(F)c3)C2)c2cc(F)c(-c3c(O)cccc3F)nc21  KRAS G12C (Homo sapiens, UniProt P01116, G12C)             IC50     1000 to 5000 nM
4  C=Cc1ncc2n1CCN(c1nc(=O)n(CCOC)c3nc(-c4c(O)cccc4F)c(F)cc13)C2  KRAS G12C (Homo sapiens, UniProt P01116, G12C)             IC50     1000 to 5000 nM

*Q* Item C=Cc1ncc2n1CCN(c1nc(OCC3CCCN3C)nc3c(F)c(-c4c(C)ccc5[nH]ncc45)c(Cl)cc13)C2 (racemic) with KRAS G12C (Homo sapiens, UniProt P01116, G12C) - IC50?
*A* 100 to 1000 nM

*Q* For KRAS G12C (Homo sapiens, UniProt P01116, G12C), provide IC50 of "C=Cc1ncc2n1CCN(c1nc(OCCN3CCOCC3)nc3c(F)c(-c4cc(O)cc5ccccc45)c(Cl)cc13)C2" please.
*A* 100 to 1000 nM

*Q* State its IC50 on KRAS G12C (Homo sapiens, UniProt P01116, G12C): C=Cc1ncc2n1CCN(c1nc(OC3CCCN(C)C3)nc3c(F)c(-c4cc(O)cc5ccccc45)c(Cl)cc13)C2 (racemic)
*A* 100 to 1000 nM
